test.target: Ns H-NOX (Nostoc sp. PCC 7120 = FACHB-418, UniProt A0ACD6B960)
Sequence (A0ACD6B960 1-189): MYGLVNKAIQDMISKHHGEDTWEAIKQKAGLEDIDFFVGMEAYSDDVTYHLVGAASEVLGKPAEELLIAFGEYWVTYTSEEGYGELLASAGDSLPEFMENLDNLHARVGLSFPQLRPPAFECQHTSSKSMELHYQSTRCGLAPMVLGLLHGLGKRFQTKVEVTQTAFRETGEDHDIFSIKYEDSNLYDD
parameter.measured: pKd
Give bare numbers, as −log10 of the molar value.

Q: Specify reported pKd for the compound shown: O=O
Ans: 1.89

Taken from paper PMC3254785.
